# assay_target: TYK2 (Homo sapiens, UniProt P29597)
# Construct: endogenous in cells; host or cells: MHH-CALL-4
# Sequence (P29597 whole entry): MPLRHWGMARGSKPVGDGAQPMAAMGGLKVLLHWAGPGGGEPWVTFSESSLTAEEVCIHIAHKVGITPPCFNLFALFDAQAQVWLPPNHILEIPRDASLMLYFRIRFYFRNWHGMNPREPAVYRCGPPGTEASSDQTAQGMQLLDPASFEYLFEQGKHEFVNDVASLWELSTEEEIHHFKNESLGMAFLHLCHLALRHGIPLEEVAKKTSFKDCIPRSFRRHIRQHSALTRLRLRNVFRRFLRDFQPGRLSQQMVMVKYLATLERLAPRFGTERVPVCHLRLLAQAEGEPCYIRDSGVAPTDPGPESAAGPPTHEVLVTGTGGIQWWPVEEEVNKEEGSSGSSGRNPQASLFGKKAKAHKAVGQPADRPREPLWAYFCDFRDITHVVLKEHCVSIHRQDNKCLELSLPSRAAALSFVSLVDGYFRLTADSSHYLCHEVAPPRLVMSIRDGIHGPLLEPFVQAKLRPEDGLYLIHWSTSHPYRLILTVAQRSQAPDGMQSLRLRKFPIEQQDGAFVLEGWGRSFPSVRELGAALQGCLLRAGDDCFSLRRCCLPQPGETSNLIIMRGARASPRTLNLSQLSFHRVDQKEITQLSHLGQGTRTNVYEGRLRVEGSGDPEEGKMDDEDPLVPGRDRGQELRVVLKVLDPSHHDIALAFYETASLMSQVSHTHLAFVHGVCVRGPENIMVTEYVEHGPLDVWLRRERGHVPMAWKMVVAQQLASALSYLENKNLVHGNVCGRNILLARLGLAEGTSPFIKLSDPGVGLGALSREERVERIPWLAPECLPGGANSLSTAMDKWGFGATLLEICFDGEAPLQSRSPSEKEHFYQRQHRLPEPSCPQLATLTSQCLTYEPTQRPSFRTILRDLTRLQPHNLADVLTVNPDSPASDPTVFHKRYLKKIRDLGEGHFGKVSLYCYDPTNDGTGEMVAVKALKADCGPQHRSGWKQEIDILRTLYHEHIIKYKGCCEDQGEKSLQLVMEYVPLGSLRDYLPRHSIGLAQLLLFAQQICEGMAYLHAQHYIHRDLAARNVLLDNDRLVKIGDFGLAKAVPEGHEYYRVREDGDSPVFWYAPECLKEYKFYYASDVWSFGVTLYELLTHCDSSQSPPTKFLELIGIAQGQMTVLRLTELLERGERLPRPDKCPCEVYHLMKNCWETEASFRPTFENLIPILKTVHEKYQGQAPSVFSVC
# assay: Western blot assay, TYK2 protein degradation
# Assay type: cell-based
# measurement_context: MHH-CALL-4 cells, vehicle control = 100%
observed_property: Target Protein Degradation (% remaining at 100 nM, 24 h) TYK2

[
  {
    "compound": "CCS(=O)(=O)N1CC(CC#N)(n2cc(-c3nc(Nc4ccc(C(=O)NC5CCN(c6ccc(C7CCC(=O)NC7=O)cc6)CC5)cc4)nc4[nH]ccc34)cn2)C1 (stereo not drawn) [Compound 46]",
    "recorded_value": "119 % remaining"
  },
  {
    "compound": "CCS(=O)(=O)N1CC(CC#N)(n2cc(-c3nc(Nc4ccc(C(=O)NCCCN5CCN(c6ccc(C7CCC(=O)NC7=O)cc6)CC5)cc4)nc4[nH]ccc34)cn2)C1 (stereo not drawn) [Compound 10]",
    "recorded_value": "118 % remaining"
  }
]

Now consider the entry below.
Form field: reported Target Protein Degradation (% remaining at 100 nM, 24 h) TYK2 of CCS(=O)(=O)N1CC(CC#N)(n2cc(-c3nc(Nc4ccc(C(=O)NCCCCOc5cccc(C6CCC(=O)NC6=O)c5)cc4)nc4[nH]ccc34)cn2)C1 (stereo not drawn) [Compound 41] 125 % remaining

###

# assay_target: TYK2 (Homo sapiens, UniProt P29597)
# Construct: endogenous in cells; host or cells: MHH-CALL-4
# assay: Western blot assay, TYK2 protein degradation
# Format: cell-based
# measurement_context: MHH-CALL-4 cells, vehicle control = 100%
observed_property: Target Protein Degradation (% remaining at 100 nM, 24 h) TYK2 (% remaining)
Lab book: enter the figure in % remaining, no units written.

[
  {
    "compound": "CCS(=O)(=O)N1CC(CC#N)(n2cc(-c3nc(Nc4ccc(C(=O)NCCCCOc5ccc(C6CCC(=O)NC6=O)cc5)cc4)nc4[nH]ccc34)cn2)C1 (centres unmarked) [Compound 5]",
    "assay_target": "TYK2 (Homo sapiens, UniProt P29597)",
    "u": "% remaining",
    "recorded_value": 142
  },
  {
    "compound": "CCS(=O)(=O)N1CC(CC#N)(n2cc(-c3nc(Nc4ccc(C(=O)NCCN5CCN(c6ccc(C7CCC(=O)NC7=O)cc6)CC5)cc4)nc4[nH]ccc34)cn2)C1 (centres unmarked) [Compound 37]",
    "assay_target": "TYK2 (Homo sapiens, UniProt P29597)",
    "u": "% remaining",
    "recorded_value": 121
  },
  {
    "compound": "CCS(=O)(=O)N1CC(CC#N)(n2cc(-c3nc(Nc4ccc(C(=O)NCCNC(=O)COc5ccc(C6CCC(=O)NC6=O)cc5)cc4)nc4[nH]ccc34)cn2)C1 (centres unmarked) [Compound 17]",
    "assay_target": "TYK2 (Homo sapiens, UniProt P29597)",
    "u": "% remaining",
    "recorded_value": 88
  },
  {
    "compound": "CCS(=O)(=O)N1CC(CC#N)(n2cc(-c3nc(Nc4ccc(C(=O)NCCCNC(=O)COc5ccc(C6CCC(=O)NC6=O)cc5)cc4)nc4[nH]ccc34)cn2)C1 (centres unmarked) [Compound 18]",
    "assay_target": "TYK2 (Homo sapiens, UniProt P29597)",
    "u": "% remaining",
    "recorded_value": 122
  }
]

API: the following record is the query input.
Item CCS(=O)(=O)N1CC(CC#N)(n2cc(-c3nc(Nc4ccc(C(=O)NCCCCOc5ccc(C6CCC(=O)N(C)C6=O)cc5)cc4)nc4[nH]ccc34)cn2)C1 (centres unmarked) [Compound 47] with TYK2 (Homo sapiens, UniProt P29597) - Target Protein Degradation (% remaining at 100 nM, 24 h) TYK2? 89
